# system_under_test: farnesyl protein transferase (FPT) (Rattus norvegicus, UniProt Q02293+Q04631)
# Construct: were partially purified from rat brain by ammonium sulfate fractionation; from tissue; host or cells: rat brain (ammonium sulfate fractionation, Q-Sepharose)
# protocol_summary: In vitro enzyme assay: inhibition of farnesyl protein transferase (FPT), [3H]farnesyl transfer to Ras-CVLS
# Format: biochemical
# condition_context: Table 1; Ras-CVLS substrate, 30 minutes at room temperature; read-out: FPT IC50
pIC50: −log10 of the molar value. Structures can show the parent of a compound that is named as a salt.
endpoint: pIC50

The reported pIC50 value, farnesyl protein transferase (FPT) (Rattus norvegicus, UniProt Q02293+Q04631), for O=C(Cc1cc[n+]([O-])cc1)N1CCC(C2c3ccc(Cl)c(Br)c3CCc3cc(Br)cnc32)CC1 (single isomer, unassigned) [Example 14A · HCl salt] reads > 8.51

====

Listing: pIC50 of selected compounds
# system_under_test: farnesyl protein transferase (FPT) (Rattus norvegicus, UniProt Q02293+Q04631)
# Construct: were partially purified from rat brain by ammonium sulfate fractionation; from tissue; host or cells: rat brain (ammonium sulfate fractionation, Q-Sepharose)
# protocol_summary: In vitro enzyme assay: inhibition of farnesyl protein transferase (FPT), [3H]farnesyl transfer to Ras-CVLS
# Type: biochemical
pIC50: −log10 of the molar value.

Example entries begin here.
For reference, reported pIC50 for O=C(Cc1cc[n+]([O-])cc1)N1CCN(C2c3ccc(Cl)c(Br)c3CCc3cc(Br)cnc32)CC1 (racemic) stands at ~8.52

For reference, reported pIC50 for O=C(Cc1cc[n+]([O-])cc1)N1CCN(C2c3ncc(Br)cc3CCc3cccc(Cl)c32)CC1 (single isomer, unassigned) stands at 8.21

For reference, reported pIC50 for O=C(Cc1cc[n+]([O-])cc1)N1CCN([C@@H]2c3ccc(Cl)c(Br)c3CCc3cc(Br)cnc32)CC1 stands at < 7.00

# evaluate next
For reference, reported pIC50 for O=C(Cc1cc[n+]([O-])cc1)N1CCC([C@@H]2c3ncc(Br)cc3CCc3cc(Cl)cc(Br)c32)CC1 stands at < 7.06

====

Listing: IC50 of selected compounds
# Tested on: SW620-BAG human colon carcinoma cells expressing an activated K-ras gene
# protocol_summary: Cell mat assay, SW620-BAG tumor cells
# Type: cell-based
# condition_context: Homo sapiens, SW-620, 336 h; Mat assay, 14 d; read-out: Tumor (SW620) IC50
Reply with just the number (in µM).

For reference, reported IC50 for NC(=O)N1CCC(CC(=O)N2CCN([C@@H]3c4ccc(Cl)cc4CCc4cc(Br)cnc43)CC2)CC1 [Example 17] stands at 25

# evaluate next
For reference, reported IC50 for NC(=O)N1CCC(CC(=O)N2CCC(=C3c4ncc(Br)cc4CCc4cc(Cl)cc(Br)c43)CC2)CC1 [Example 8A] stands at 3.1

====

# Tested on: A549
# protocol_summary: Soft agar assay
# Assay type: cell-based
# condition_context: Homo sapiens; A549 (lung) K ras mutation; read-out: IC50, inhibition of human tumor cell growth, soft agar
endpoint: pIC50
Scale note: pIC50 = -log10(concentration in M).

For reference, reported pIC50 for NC(=O)N1CCC(CC(=O)N2CCC(C3c4ncc(Br)cc4CCc4cc(Cl)cc(Cl)c43)CC2)CC1 (single isomer, unassigned) stands at 6.52

# evaluate next
For reference, reported pIC50 for NC(=O)N1CCC(CC(=O)N2CCC([C@H]3c4ncc(Br)cc4CCc4cc(Cl)cc(Br)c43)CC2)CC1 stands at 6.82
